Tested on: NLRP3 inflammasome
procedureText: IL-1β secretion assay (LPS-primed, nigericin-activated THP-1 cells, MSD readout)
Assay type: cell-based
testConditions: LPS-primed, read-out: IL1b IC50
pIC50: −log10 of the molar value.
valueKind: pIC50

>>> recordednumber("CC(O)c1nn(CC(=O)N[C@@H]2CCCN(C3CCC3)C2)c(=O)c2cc3ccsc3n12 (single isomer, unassigned) [Example 50]")
6.19

(I) CC(C)c1nn(CC(=O)Nc2cncs2)c(=O)c2cc3ccsc3n12
(II) CC(O)c1nn(CC(=O)N[C@@H]2CCCN(C3CC3)C2)c(=O)c2cc3ccsc3n12 (single isomer, unassigned) [Example 44]
In: Param metric = pIC50; output whichever of I , II has the minimum value. State the label of the item chosen.
Out: I
(I: 6.24, II: 6.56)

====

Tested on: TNF-α secretion
procedureText: TNF-α secretion assay (PMA-differentiated THP-1 cells, LPS-triggered, MSD readout)
Format: cell-based
testConditions: Homo sapiens, compound at 10 μM, LPS 24 h
Reported inhibition at 10 µM values for a set of molecules
Field format: number, assumed %, no unit text.

>>> recordednumber("CC(C)c1nn(CC(=O)N[C@@H]2CCCN(C)C2)c(=O)c2cc3cc(Br)sc3n12")
-21.8
>>> recordednumber("C=O.CC(C)c1nn(CC(=O)N[C@@H]2CCCN(CC3CC3(F)F)C2)c(=O)c2cc3ccsc3n12 (some centres unmarked)")
21.6
>>> recordednumber("CC(C)c1nn(CC(=O)NC2CN(C)CC(F)(F)C2)c(=O)c2cc3ccsc3n12 (centres unmarked)")
5.7
>>> recordednumber("O=C(Cn1nc(C2CC2)n2c(cc3ccsc32)c1=O)N[C@@H]1CCCN(C2CCC2)C1")
-26
>>> recordednumber("O=C(Cn1nc(C2CC2)n2c(cc3cc(Cl)sc32)c1=O)N[C@@H]1CCCN(C2CC2)C1")
22.2
>>> recordednumber("CC(C)c1nn(CC(=O)N[C@@H]2CCCN(C3CCC3)C2)c(=O)c2cc3cc(Cl)sc3n12.O=CO [Example 10, formate]")
-11.9
>>> recordednumber("CC(C)c1nn(CC(=O)N[C@@H]2CCCN(C)C2)c(=O)c2cc3cc(Cl)sc3n12 [Example 5, 2,2,2-trifluoroacetate]")
-14.1
>>> recordednumber("CC(C)c1nn(CC(=O)N[C@@H]2CCCN(C[C@H](C)O)C2)c(=O)c2cc3ccsc3n12")
-8.2

// below: inhibition at 10 µM requested for another molecule
In: Report inhibition at 10 µM for CC(C)c1nn(CC(=O)N[C@@H]2CCCN(C3CCC3)C2)c(=O)c2cc3cc(Br)sc3n12 [Example 31, 2,2,2-trifluoroacetate]
Out: 32.5

====

procedureText: Brain over plasma ratio evaluation
Type: in vivo
testConditions: mouse, brain and plasma, iv; female C57B16 mice, single i.v. 1 mg/kg, 0.25 h post dosing, geometric mean of 3 animals
valueKind: Kp at 0.25 h

>>> recordednumber("CC(C)c1nn(CC(=O)N[C@@H]2CCCN(C3CCC3)C2)c(=O)c2cc3cc(Cl)sc3n12.O=CO")
5.84

(1) CC(C)c1nn(CC(=O)NC2CCCN(C(C)(C)C)C2)c(=O)c2cc3cc(Br)sc3n12 (stereo not shown)
(2) CC(C)c1nn(CC(=O)N[C@@H]2CCCN(C3CC3)C2)c(=O)c2cc3cc(Cl)sc3n12.O=C(O)C(F)(F)F
(3) CC(C)c1nn(CC(=O)N[C@@H]2CCCN(C3CCC3)C2)c(=O)c2cc3ccsc3n12.O=CO
In: # desc sort on Kp at 0.25 h across 3 compounds Returns: the labels arranged in the requested order.
Out: 2, 3, 1
(2: 7.58, 3: 3.2, 1: 1.15)

(1) CC(C)c1nn(CC(=O)N[C@@H]2CCCN(CC3CC(F)(F)C3)C2)c(=O)c2cc3ccsc3n12.O=CO
(2) CC(C)c1nn(CC(=O)N[C@@H]2CCCN(CCCF)C2)c(=O)c2cc3ccsc3n12.O=CO
In: Param metric = Kp at 0.25 h; output whichever of 1 , 2 has the minimum value. State the label of the item chosen.
Out: 1
(1: 0.42, 2: 1.56)

====

Reported inhibition at 10 µM values for a set of compounds
Tested on: TNF-α secretion
procedureText: TNF-α secretion assay (PMA-differentiated THP-1 cells, LPS-triggered, MSD readout)
Type: cell-based
testConditions: Homo sapiens, compound at 10 μM, LPS 24 h
Counter-ions that a name gives are not always drawn.
Field format: number, assumed %, no unit text.

>>> recordednumber("CC(C)c1nn(CC(=O)N[C@@H]2CCCN(CC3CC3)C2)c(=O)c2cc3ccsc3n12 [Example 28, formate]")
-45.5
>>> recordednumber("CC(C)c1nn(CC(=O)N[C@@H]2CCCN(C)C2)c(=O)c2cc3ccsc3n12")
-17.7
>>> recordednumber("O=C(Cn1nc(C2CC2)n2c(cc3ccsc32)c1=O)N[C@@H]1CCCN(C2CC2)C1")
13.5
>>> recordednumber("CC(C)c1nn(CC(=O)N[C@@H]2CCCN(CC3CCCC3)C2)c(=O)c2cc3ccsc3n12")
31.4

In: Fill in: inhibition at 10 µM on TNF-α secretion, entry `C=O.CC(C)c1nn(CC(=O)N[C@@H]2CCCN(CCO)C2)c(=O)c2cc3ccsc3n12`
Out: -22.7

In: Fill in: inhibition at 10 µM on TNF-α secretion, entry `C[C@H](O)CN1CCC[C@@H](NC(=O)Cn2nc(C3CC3)n3c(cc4ccsc43)c2=O)C1`
Out: 14.5

In: Fill in: inhibition at 10 µM on TNF-α secretion, entry CN1CCC[C@@H](NC(=O)Cn2nc(C3CC3)n3c(cc4ccsc43)c2=O)C1 [Example 24, formate]
Out: 15.5

In: Fill in: inhibition at 10 µM on TNF-α secretion, entry CC(C)c1nn(CC(=O)N[C@@H]2CCCN(CC(C)(C)O)C2)c(=O)c2cc3ccsc3n12 [Example 23, formate]
Out: 3.3

In: Fill in: inhibition at 10 µM on TNF-α secretion, entry `CC(C)c1nn(CC(=O)N[C@@H]2CCCN(C3CC3)C2)c(=O)c2cc3ccsc3n12`
Out: 7.5

In: Fill in: inhibition at 10 µM on TNF-α secretion, entry `CC(C)CN1CCC[C@@H](NC(=O)Cn2nc(C(C)C)n3c(cc4ccsc43)c2=O)C1`
Out: -18.8

In: Fill in: inhibition at 10 µM on TNF-α secretion, entry CC(C)c1nn(CC(=O)N[C@@H]2CCCN(C3CCC3)C2)c(=O)c2cc3ccsc3n12.O=CO [Example 11, formate]
Out: -12.7
